Catalogue of INHIBITION readings, one per entry.
- System: Plasmodium berghei
- test_name: Screen against P. berghei liver stage (PbLuc), transformed with Luciferase, at 10uM
- Format: functional, HepG2
- conditions_used: tested at 10 uM
Hit rate of the full screen: of about 69,000 compounds, about 8,600 (12%) showed an effect of 50% or more. What follows is part of a selection rich in strong results, with near analogues and random picks from the rest.
Express it in %; write the number only.

O=C(C1CCCc2[nH]ncc21)N1CCCC2(C1)OCCO2 (configuration not stated)
50.8
CCN1CCN(C(=O)C2CCCc3[nH]ncc32)CC1 (configuration not stated)
-24.9
O=C(COc1coc(CN2CCOCC2)cc1=O)Nc1ccccc1F
-0.532
N#Cc1ccccc1CN1CCC(CN2CCOCC2)C1 (configuration not stated)
-19.8
CCOc1cccc(CNCc2ccc(NC(=O)NC(C)C)cc2)c1
-18

In: Item under review: O=c1cc(N2CCCC2)cnn1Cc1noc(C2CCCO2)n1 (configuration not stated) . Reported INHIBITION?
Out: 47.1

In: Item under review: `Cc1nc2sccn2c1CNC1(c2ccccc2F)CCCC1` . Reported INHIBITION?
Out: 52.4

In: Item under review: c1cnn(CC2CCCN2Cc2cn3ccsc3n2)c1 (configuration not stated) . Reported INHIBITION?
Out: 28

In: Item under review: `COc1cc(CNCc2ccc(NC(=O)NC(C)C)cc2)cc(OC)c1` . Reported INHIBITION?
Out: 60

In: Item under review: COc1cc(OC)cc(C(=O)N2CCOCC2c2[nH]ncc2C)c1 (configuration not stated) . Reported INHIBITION?
Out: 46.25

In: Item under review: `Cc1nc2ccc(S(=O)(=O)Nc3c(C)nn(CC(=O)O)c3C)cc2s1` . Reported INHIBITION?
Out: 34.7

In: Item under review: O=c1cc(N2CCCCC2)cnn1Cc1noc(C2CCCO2)n1 (configuration not stated) . Reported INHIBITION?
Out: -27.1
